Outcome label depends on melting point relative to 200 °C: at/above gives yes, below gives no.

{"compound": "CC(C)CN1C(=O)c2c(F)ccc(F)c2C1CC(=O)N=C(N)N (centres unmarked)", "discrete-label": "yes"}
{"compound": "Cc1ccc2c(c1)C(=O)N(CC(C)C)C2CC(=O)N=C(N)N (centres unmarked)", "discrete-label": "yes"}
{"compound": "NC(N)=NC(=O)CC1c2ccccc2C(=O)N1CC1CC1 (centres unmarked)", "discrete-label": "yes"}
{"compound": "CCN1C(=O)c2ccccc2C1CC(=O)N=C(N)N (centres unmarked)", "discrete-label": "yes"}
{"compound": "CC(C)CN1C(=O)c2cc(C(F)(F)F)ccc2C1CC(=O)N=C(N)N (centres unmarked)", "discrete-label": "yes"}
{"compound": "CC(C)CN1C(=O)c2ccc(C(F)(F)F)cc2C1CC(=O)N=C(N)N (centres unmarked)", "discrete-label": "no"}

Input line: Does CC(C)CN1C(=O)c2ccccc2C1CC(=O)N=C(N)N (single isomer, unassigned; (-)) have a reported melting point of at least 200 °C?
Output line: yes

Input line: Reported melting point at or above 200 °C? CCCN1C(=O)c2ccccc2C1CC(=O)N=C(N)N (centres unmarked)
Output line: yes

Input line: I'd appreciate it if you could say whether CC(C)CN1C(=O)c2cc(Cl)c(Cl)cc2C1CC(=O)N=C(N)N (centres unmarked) has melting point at least equal to 200 °C.
Output line: no

---

Here, each record is paired with measured pIC50 data.
- tested-on: NHE1 (Homo sapiens, UniProt P19634)
- Construct: expressed in transfected cells
- Sequence (P19634 whole entry, species assumed): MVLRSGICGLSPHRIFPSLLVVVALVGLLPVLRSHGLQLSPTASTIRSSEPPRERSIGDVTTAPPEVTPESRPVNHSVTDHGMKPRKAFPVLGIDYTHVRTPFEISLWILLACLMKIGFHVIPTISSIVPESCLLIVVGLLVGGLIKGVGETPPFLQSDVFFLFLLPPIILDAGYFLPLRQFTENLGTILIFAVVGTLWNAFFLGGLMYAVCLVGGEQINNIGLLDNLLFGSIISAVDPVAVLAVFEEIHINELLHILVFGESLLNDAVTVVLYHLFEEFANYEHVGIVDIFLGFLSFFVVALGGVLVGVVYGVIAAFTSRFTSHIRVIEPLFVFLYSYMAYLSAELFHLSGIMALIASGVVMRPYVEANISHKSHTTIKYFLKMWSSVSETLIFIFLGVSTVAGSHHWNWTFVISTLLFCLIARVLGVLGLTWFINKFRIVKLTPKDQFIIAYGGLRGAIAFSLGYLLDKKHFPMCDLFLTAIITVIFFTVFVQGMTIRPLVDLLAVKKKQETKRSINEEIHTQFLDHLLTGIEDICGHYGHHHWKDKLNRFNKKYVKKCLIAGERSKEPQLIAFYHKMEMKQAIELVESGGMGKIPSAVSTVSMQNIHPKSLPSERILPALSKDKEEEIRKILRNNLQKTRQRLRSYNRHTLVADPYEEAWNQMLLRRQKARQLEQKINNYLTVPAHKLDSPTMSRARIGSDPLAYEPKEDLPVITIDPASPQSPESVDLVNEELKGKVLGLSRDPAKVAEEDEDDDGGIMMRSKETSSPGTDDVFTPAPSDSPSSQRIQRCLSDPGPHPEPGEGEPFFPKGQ
- method: NHE inhibition FLIPR test (intracellular pH recovery, BCECF) in transfected LAP-1 cells
- Type: cell-based
- applied-conditions: transfected cell line (parental LAP-1) expressing the NHE-1 subtype, pHi recovery after acidification
- Protocol: The NHE inhibitory activities (IC50 values) of the compounds according to the invention were determined by a FLIPR test. The test is performed in the FLIPR (Fluorescent Imaging Plate Reader) equipped with clear-bottomed and black-walled 96-well microtitration plates. The growth medium for the transfected cells (Iscove +10% foetal calf serum) also comprises G418 as selection antibiotic to ensure the presence of transfected sequences. […]
Convention used: pIC50 is expressed as -log10 of the molar concentration.

Below, each entry is followed by its recorded pIC50 result.
{"compound": "CC(C)CN1C(=O)c2cc(OC(C)C)ccc2C1CC(=O)N=C(N)N (stereo not shown)", "tested-on": "NHE1 (Homo sapiens, UniProt P19634)", "pIC50": 6.60}
{"compound": "NC(N)=NC(=O)CC1c2cc(Cl)ccc2C(=O)N1CCCC(F)(F)F (single isomer, unassigned) [Example 53b]", "tested-on": "NHE1 (Homo sapiens, UniProt P19634)", "pIC50": 7.80}
{"compound": "NC(N)=NC(=O)CC1c2cc(Cl)ccc2C(=O)N1CC1CC1 (single isomer, unassigned) [Example 55b]", "tested-on": "NHE1 (Homo sapiens, UniProt P19634)", "pIC50": 7.70}

Moving on to the next compound.
Form: compound = Cc1cccc2c1C(=O)N(CC(C)C)C2CC(=O)N=C(N)N (stereo not shown) ; pIC50 = 7.74

---

- tested-on: NHE1 (Homo sapiens)
- method: NHE inhibition FLIPR test (intracellular pH recovery, BCECF) in transfected LAP-1 cells
- applied-conditions: transfected cell line (parental LAP-1) expressing the NHE-1 subtype, pHi recovery after acidification
Label key: condition met means IC50 under 200 nM; condition not met means IC50 of 200 nM or more.

Here are 5 compounds together with their reported answers.
{"compound": "CC(C)CN1C(=O)c2cccc(F)c2C1CC(=O)N=C(N)N (centres unmarked) [Example 17]", "discrete-label": "condition met"}
{"compound": "NC(N)=NC(=O)CC1c2cc(Cl)ccc2C(=O)N1CCC(F)(F)F (single isomer, unassigned) [Example 49a]", "discrete-label": "condition met"}
{"compound": "NC(N)=NC(=O)CC1c2cc(F)c(F)cc2C(=O)N1CC(F)(F)F (centres unmarked) [Example 45]", "discrete-label": "condition not met"}
{"compound": "NC(N)=NC(=O)CC1c2cc(C(F)(F)F)ccc2C(=O)N1CC1CC1 (single isomer, unassigned) [Example 38a]", "discrete-label": "condition not met"}
{"compound": "NC(N)=NC(=O)CC1c2cc(Cl)ccc2C(=O)N1CCC(F)(F)F (single isomer, unassigned) [Example 49b]", "discrete-label": "condition met"}

Input line: Given the entry Cc1ccc2c(c1)C(=O)N(CC(C)C)C2CC(=O)N=C(N)N (centres unmarked) [Example 34] , would its reported IC50 be below 200 nM?
Output line: condition met

Input line: Strictly below 200 nM in IC50? CCN1C(=O)c2ccccc2C1CC(=O)N=C(N)N (centres unmarked) [Example 6]
Output line: condition not met

Input line: Lab log: compare recorded IC50 with 200 nM; is it strictly lower for NC(N)=NC(=O)CC1c2cc(Cl)c(Cl)cc2C(=O)N1CC(F)(F)F (single isomer, unassigned) [Example 44c] ?
Output line: condition not met

---

The entries below are paired with their reported IC50.
- tested-on: NHE1 (Homo sapiens, UniProt P19634)
- Construct: expressed in transfected cells
- method: NHE inhibition FLIPR test (intracellular pH recovery, BCECF) in transfected LAP-1 cells
- Format: cell-based
- applied-conditions: transfected cell line (parental LAP-1) expressing the NHE-1 subtype, pHi recovery after acidification
Form entry: value (nM) — number only.

{"molecule": "NC(N)=NC(=O)CC1c2cc(Cl)c(Cl)cc2C(=O)N1C1CC1 (racemic) [Example 43]", "IC50 / nM": 30}
{"molecule": "[H]/N=C(\\N)NC(=O)CC1c2cc(Cl)c(Cl)cc2C(=O)N1CCC(F)(F)F (centres unmarked) [Example 41a, acetate]", "IC50 / nM": 3}
{"molecule": "[H]/N=C(\\N)NC(=O)CC1c2cc(S(C)(=O)=O)ccc2C(=O)N1CC(F)(F)F (single isomer, unassigned) [Example 36a]", "IC50 / nM": 524}
{"molecule": "[H]/N=C(\\N)NC(=O)CC1c2cc(Cl)c(Cl)cc2C(=O)N1CC1CC1 (single isomer, unassigned) [Example 42b]", "IC50 / nM": 3}
{"molecule": "CC(C)CN1C(=O)c2cc(Cl)c(Cl)cc2C1CC(=O)N=C(N)N (centres unmarked)", "IC50 / nM": 26}

get_value(item= CC(C)CN1C(=O)c2ccccc2C1CC(=O)N=C(N)N (single isomer, unassigned; (-)) [Example 3] , readout=IC50) returns 50

Lab note: measured IC50 of NC(N)=NC(=O)CC1c2cc(Cl)c(Cl)cc2C(=O)N1C1CC1 (single isomer, unassigned) [Example 43a] was 53

Value of measured IC50 for the entry CC(C)CN1C(=O)c2ccc(C(F)(F)F)cc2C1CC(=O)N=C(N)N (centres unmarked) : 16

// IC50 lookup, molecule = NC(N)=NC(=O)CC1c2ccc(C(F)(F)F)cc2C(=O)N1CCC(F)(F)F (single isomer, unassigned) [Example 52a] , result: 50

Recorded IC50 (molecule NC(N)=NC(=O)CC1c2ccc(Cl)cc2C(=O)N1CCCC(F)(F)F (single isomer, unassigned) [Example 54a] ): 944

Reported IC50 for NC(N)=NC(=O)CC1c2cc(Cl)c(Cl)cc2C(=O)N1CC(F)(F)F (single isomer, unassigned) [Example 44b] was 13

The molecule listed as CC(C)CN1C(=O)c2ccc(C(C)(C)C)cc2C1CC(=O)N=C(N)N (centres unmarked) shows IC50 equal to 15

---

We begin with a simple list: items and their reported pIC50.
- tested-on: UniProtKB P19634
- method: NHE inhibition FLIPR test (intracellular pH recovery, BCECF) in transfected LAP-1 cells
- applied-conditions: transfected cell line (parental LAP-1) expressing the NHE-1 subtype, pHi recovery after acidification
# reply with the number alone; pIC50 is -log10 of concentration in mol/L

Examples from the recorded data:
{"compound": "[H]/N=C(\\N)NC(=O)CC1c2cc(Cl)c(Cl)cc2C(=O)N1CCC(F)(F)F (single isomer, unassigned) [Example 41b]", "tested-on": "UniProtKB P19634", "pIC50": 7.39}
{"compound": "N=C(N)NC(=O)CC1c2cc(F)c(F)cc2C(=O)N1CCC(F)(F)F (racemic) [Example 40]", "tested-on": "UniProtKB P19634", "pIC50": 7.54}
{"compound": "[H]/N=C(\\N)NC(=O)CC1c2cc(S(C)(=O)=O)ccc2C(=O)N1CC(F)(F)F (centres unmarked) [Example 36]", "tested-on": "UniProtKB P19634", "pIC50": 7.51}
{"compound": "CC(C)CN1C(=O)c2ccccc2C1CC(=O)N=C(N)N (single isomer, unassigned; (+)) [Example 4]", "tested-on": "UniProtKB P19634", "pIC50": 7.24}
{"compound": "[H]/N=C(\\N)NC(=O)CC1c2cc(Cl)c(Cl)cc2C(=O)N1CC1CC1 (racemic) [Example 42]", "tested-on": "UniProtKB P19634", "pIC50": 7.74}
{"compound": "CC(C)CN1C(=O)c2cc(C(F)(F)F)ccc2C1CC(=O)N=C(N)N (centres unmarked)", "tested-on": "UniProtKB P19634", "pIC50": 6.99}
{"compound": "NC(N)=NC(=O)CC1c2ccc(Cl)cc2C(=O)N1CCC(F)(F)F (single isomer, unassigned) [Example 50a]", "tested-on": "UniProtKB P19634", "pIC50": 8.05}
{"compound": "N=C(N)NC(=O)CC1c2cc(F)c(F)cc2C(=O)N1CCC(F)(F)F (single isomer, unassigned) [Example 40b]", "tested-on": "UniProtKB P19634", "pIC50": 7.20}

Field: next compound
According to the records, this compound NC(N)=NC(=O)CC1c2cc(Cl)c(Cl)cc2C(=O)N1C1CC1 (single isomer, unassigned) [Example 43b] displays pIC50 of 6.35

# credit: patent US7078428B2
